Every entry's value here was drawn from paper PMC7949057.

# ASSAYED SYSTEM: MANF (Homo sapiens)
# Construct: mature secreted protein (about 18 kDa, signal peptide cleaved), made in CHO-derived cells (QMCF, Icosagen), no tag told; amine-labelled with RED-NHS for MST
# Sequence (P55145 25-182): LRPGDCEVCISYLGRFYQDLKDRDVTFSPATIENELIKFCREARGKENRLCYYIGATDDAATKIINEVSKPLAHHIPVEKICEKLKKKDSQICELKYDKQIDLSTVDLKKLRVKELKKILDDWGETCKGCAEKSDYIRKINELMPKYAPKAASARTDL
# ASSAY NOTES: microscale thermophoresis
REPORTED ENDPOINT: Kd (µM)

Nc1ncnc2c1ncn2[C@@H]1O[C@H](COP(=O)(O)OP(=O)(O)O)[C@@H](O)[C@H]1O [ADP] ... 880

A. Nc1ncnc2c1ncn2[C@@H]1O[C@H](COP(=O)(O)OP(=O)(O)OP(=O)(O)O)[C@@H](O)[C@H]1O [ATP]
B. Nc1ncnc2c1ncn2[C@@H]1O[C@H](COP(=O)(O)OP(=O)(O)NP(=O)(O)O)[C@@H](O)[C@H]1O [AMP–PNP]
**Q:** Kindly compare A with B and tell me which has the lower Kd figure. # reply format: chosen label
**A:** B
(B: 560 µM, A: 830 µM)
